Give melting point for every item shown.

melting point in this record for COc1cc(/N=C/N(C)C(C)C)c(C)cc1C(O)(c1ccccc1F)C(F)(F)F (stereo not shown) [Compound E1.150] : 86 to 88 °C

For this molecule ( COc1cc(/N=C/N(C)C(C)C)c(C)cc1C(O)(C=C(C)C)C(F)(F)F (stereo not shown) [Compound E1.141] ), measured melting point is 77 to 79 °C

# molecule CCN(C)/C=N/c1cc(OC)c(C(O)(CC)c2ccccc2)cc1C (stereo not shown) [Compound E1.126] ; its melting point = 87 to 89 °C

So for CCN(C)/C=N/c1cc(OC)c(C(O)(Cc2cccc(OC)n2)C(F)(F)F)cc1C (stereo not shown) [Compound E1.100] , the logged melting point turned out to be 92 to 95 °C

Consider CCN(C)/C=N/c1cc(OC)c(C(O)(c2cccc(C#N)c2)C(F)(F)F)cc1C (stereo not shown) [Compound E1.022] . Its measured melting point is 38 to 40 °C

GET /value?item= CCN(/C=N/c1cc(OC)c(C(O)(c2ccccc2)C(F)(F)F)cc1C)CC (stereo not shown) [Compound E1.139] &field=melting point returns 102 to 104 °C

The molecule identified as C=C(C)CC(O)(c1cc(C)c(/N=C/N(C)C(C)C)cc1OC)C(F)(F)F (stereo not shown) [Compound E1.082] registered its melting point at 90 to 95 °C

Value of melting point reported for the molecule C=C(C)C(O)(c1cc(C)c(/N=C/N(C)C(C)C)cc1OC)C(F)(F)F (stereo not shown) [Compound E1.081] is 110 to 113 °C

The value of melting point measured for the molecule CCN(C)/C=N/c1cc(OC)c(C(O)(c2ccc(OC)cc2)C(F)(F)F)cc1C (stereo not shown) [Compound E1.011] turned out to be 67 to 71 °C

Please fill in: melting point reported for COc1cc(/N=C/N(C)C(C)C)c(C)cc1C(O)(c1ccccc1Cl)C(F)(F)F (stereo not shown) [Compound E1.151] = 67 to 69 °C

Entry CCN(C)/C=N/c1cc(OC)c(C(O)(c2ccc(F)c(F)c2)C(F)(F)F)cc1C (stereo not shown) [Compound E1.128] — recorded melting point = 108 to 110 °C

Reported melting point for COc1cc(/N=C/N(C)C)c(C)cc1C(O)(c1ccccc1)C(F)(F)F (stereo not shown) [Compound E1.137] was 133 to 135 °C

The molecule listed as CCN(C)/C=N/c1cc(OC)c(C(O)(C(F)(F)F)C(F)(F)F)cc1C [Compound E1.001] shows melting point equal to 126 to 128 °C

Value of measured melting point for the entry COc1cc(/N=C/N(C)C(C)C)c(C)cc1C(O)(c1cc(F)ccc1C)C(F)(F)F (stereo not shown) [Compound E1.146] : 116 to 118 °C

Sure, the documented melting point for CCN(C)/C=N/c1cc(OC)c(C(O)(c2ccccc2F)C(F)(F)F)cc1C (stereo not shown) [Compound E1.034] is 96 to 98 °C

Query CCN(C)/C=N/c1cc(OC)c(C(O)(c2cccc(OC(F)F)c2)C(F)(F)F)cc1C (stereo not shown) [Compound E1.044] yields melting point of 119 to 121 °C

====

I'd be grateful if you could share measured melting point for these entries.

Record CCN(C)/C=N/c1cc(OC)c(C(O)(c2c(F)cccc2F)C(F)(F)F)cc1C (centres unmarked) [Compound E1.147] . Reported melting point: 128 to 130 °C

The compound identified as CCN(C)/C=N/c1cc(OC)c(C(O)(c2ccc(OC(F)F)cc2)C(F)(F)F)cc1C (centres unmarked) [Compound E1.045] registered its melting point at 85 to 87 °C

# compound CCN(C)/C=N/c1cc(OC)c(C(O)(c2ccccc2Br)C(F)(F)F)cc1C (centres unmarked) [Compound E1.035] ; its melting point = 114 to 116 °C

Note to self: melting point recorded for CCOc1cc(/N=C/N(C)CC)c(C)cc1C(O)(c1ccccc1)C(F)(F)F (centres unmarked) [Compound E1.002] was 148 to 151 °C

melting point reported for this compound COc1cc(/N=C/N(C)C(C)C)c(C)cc1C(O)(C1CC1)C(F)(F)F (centres unmarked) [Compound E1.064] : 90 to 93 °C

According to the records, this compound CCN(C)/C=N/c1cc(OC)c(C(O)(Cc2cc(C)ncn2)C(F)(F)F)cc1C (centres unmarked) [Compound E1.099] displays melting point of 82 to 85 °C

Recorded melting point (compound CCN(C)/C=N/c1cc(OC)c(C(O)(C#CC2CCCCC2)C(F)(F)F)cc1C (centres unmarked) [Compound E1.085] ): 62 to 64 °C

The compound identified as CCN(C)/C=N/c1cc(OC)c(C(O)(c2ccccc2)C(F)(F)F)cc1C (centres unmarked) [Compound E1.006] registered its melting point at 160 to 162 °C

Source listed as patent US10723695B2.
